Test system: human neutrophils
assay.protocol: cells
Assay type: cell-based
protocol.conditions: fMLP/CB, mean ± SEM, n = 3, Table 2, read-out: Anti-inflammation NE release (IC50)
Square brackets hold non-standard residues; d marks the D form. Peptide text beside a SMILES is read from it. * marks the point of attachment. dPhe(4-NO2) = N[C@H](Cc1ccc([N+](=O)[O-])cc1)C(=O)O; dPhe(4-Cl) = N[C@H](Cc1ccc(Cl)cc1)C(=O)O; Bz = O=C(c1ccccc1)*
reported.endpoint: IC50 (µM)
Numbers only, in µM.

[
  {
    "compound": "COC(=O)[C@@H](Cc1ccc(Cl)cc1)NC(=O)[C@H](Cc1c[nH]c2ccccc12)NC(=O)c1ccccc1 [Compound 21b] (Bz-Trp-[dPhe(4-Cl)]-OMe)",
    "IC50 (µM)": 12.4
  },
  {
    "compound": "COC(=O)[C@@H](Cc1ccc(Cl)cc1)NC(=O)[C@H](Cc1c[nH]c2ccccc12)NC(=O)c1ccccc1 [Compound 21a] (Bz-Trp-[dPhe(4-Cl)]-OMe)",
    "IC50 (µM)": 4.31
  },
  {
    "compound": "COC(=O)[C@@H](Cc1ccc([N+](=O)[O-])cc1)NC(=O)[C@H](Cc1c[nH]c2ccccc12)NC(=O)c1ccccc1 [Compound 18b] (Bz-Trp-[dPhe(4-NO2)]-OMe)",
    "IC50 (µM)": 15.4
  }
]

Now look at this entry.
Query block: Any idea what its IC50 is? The compound is COC(=O)[C@@H](Cc1ccc([N+](=O)[O-])cc1)NC(=O)[C@H](Cc1c[nH]c2ccccc12)NC(=O)c1ccccc1 [Compound 18a] (Bz-Trp-[dPhe(4-NO2)]-OMe)
Result block: 11.2

* * *

Test system: human neutrophils
assay.protocol: cells
Format: cell-based
protocol.conditions: human neutrophils, fMLF; mean ± SEM, n = 4 or 8; Table 5; read-out: Superoxide anion fMLF IC50
reported.endpoint: pIC50
Numbers only, as −log10 of the molar value.

Query block: Field: pIC50 (human neutrophils). Entry: N#CCNC(=O)[C@@H](Cc1ccccc1)NC(=O)[C@H](Cc1c[nH]c2ccccc12)NC(=O)c1ccccc1 [Compound 27a]
Result block: 5.21

* * *

Tested on: human neutrophils
assay.protocol: cells
Format: cell-based
protocol.conditions: WKYMVm, mean ± SEM, n = 4 or 8, Table 6, read-out: Elastase release WKYMVm IC50
reported.endpoint: IC50 (µM)
Answers are plain numbers, in µM.

Query block: Item under review: N#CCNC(=O)[C@@H](Cc1ccccc1)NC(=O)[C@H](Cc1c[nH]c2ccccc12)NC(=O)c1ccccc1 [Compound 27b] . Reported IC50?
Result block: 6.65

* * *

Test system: human neutrophils
assay.protocol: cells
Format: cell-based
protocol.conditions: Neutrophil, fMLP/CB, mean ± SEM, n = 3, Table 1, read-out: Anti-inflammation NE release (IC50)
Square brackets hold non-standard residues; d marks the D form. Peptide text beside a SMILES is read from it. * marks the point of attachment. Hydrocinnamoyl = O=C(CCc1ccccc1)*; PhAc = O=C(Cc1ccccc1)*; Bz = O=C(c1ccccc1)*
reported.endpoint: IC50 (µM)
One number for each entry, in µM.

Examples with answers:
[
  {
    "compound": "CC(C)(C)C(=O)Oc1ccc(S(=O)(=O)Nc2ccccc2C(=O)NCC(=O)O)cc1 [Sivelestat, reference compound]",
    "result.units": "µM",
    "observed.value": 0.046
  },
  {
    "compound": "COC(=O)[C@@H](Cc1ccccc1)NC(=O)[C@H](Cc1c[nH]c2ccccc12)NC(=O)Cc1ccccc1 [Compound 8] (PhAc-Trp-[dF]-OMe)",
    "result.units": "µM",
    "observed.value": 5.71
  },
  {
    "compound": "COC(=O)[C@@H](Cc1ccccc1)NC(=O)[C@H](Cc1c[nH]c2ccccc12)NC(=O)CCc1ccccc1 [Compound 9] (Hydrocinnamoyl-Trp-[dF]-OMe)",
    "result.units": "µM",
    "observed.value": 12.5
  },
  {
    "compound": "COC(=O)[C@@H](Cc1ccccc1)NC(=O)[C@H](Cc1c[nH]c2ccccc12)NC(=O)c1ccc(C)cc1 [Compound 6]",
    "result.units": "µM",
    "observed.value": 2.47
  },
  {
    "compound": "COC(=O)[C@@H](Cc1ccccc1)NC(=O)[C@H](Cc1c[nH]c2ccccc12)NC(=O)c1ccc(Cl)cc1 [Compound 5]",
    "result.units": "µM",
    "observed.value": 10.4
  }
]

Attention now shifts to the item below.
Query block: What value of IC50 has been reported for the following compound? COC(=O)[C@@H](Cc1ccccc1)NC(=O)[C@H](Cc1c[nH]c2ccccc12)NC(=O)c1ccccc1 [Compound 3] (Bz-Trp-[dF]-OMe)
Result block: 0.6
